Values compiled from patent US12226405B2.

system: HIF2α-dependent transcription in 786-O-HRE-Luc cells; assay: In vitro cellular hypoxia response element (HRE) reporter gene assay (RGA) for HIF2α; type: cell-based, human; conditions: Homo sapiens, 24 hours incubation
Record form. Attribute: pIC50. Fill in for each entry.
Please note pIC50 is a logarithmic value: minus log10 of concentration in mol/L. Answer with that number alone.

Give reported pIC50 value for "N#CC1=CN2C[C@@]3(CCSc4c3ccc(F)c4F)N=C2C(OC(F)F)=C1"
6.94

Give reported pIC50 value for "Fc1c(Br)ccc2c1C(F)(F)CC[C@@]21CN2C=C(C(F)(F)F)C=C(OC(F)F)C2=N1"
6.84

Give reported pIC50 value for "Fc1c(Br)ccc2c1OCC[C@@]21CN2C=C(C(F)(F)F)C=C(OC(F)F)C2=N1"
6.60

Give reported pIC50 value for "Fc1c(Br)ccc2c1CCC[C@@]21CN2C=C(Cl)C=C(OC(F)F)C2=N1"
6.66
